B1: 5KPH (parent)
chain: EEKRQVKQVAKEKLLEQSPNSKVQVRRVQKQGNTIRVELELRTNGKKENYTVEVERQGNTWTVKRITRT

- Variants of: B1
- assay_explanation: folding stability dG (cDNA display proteolysis); higher = more stable
- conditions: PBS, room temperature
Below, each of the variants is paired with its reported folding stability dG value.
Give the value; after it, write the unit.

Worked cases, folding stability dG given:
• Q57S = 3.89 kcal/mol
• V63F = 2.78 kcal/mol

q: For the variant `E53D` , what folding stability dG is on record?
a: 3.76 kcal/mol

q: Would you mind telling me what folding stability dG value was observed for `N44F` ?
a: 3.7 kcal/mol

q: Param item = `Q24G` ; retrieve measured folding stability dG.
a: 3.09 kcal/mol

q: Name the reported folding stability dG value associated with the variant `V63H`
a: 1.18 kcal/mol

q: Item under review: `E38C` . Reported folding stability dG?
a: 3.66 kcal/mol

q: Requested read-out: folding stability dG. Entry: `N49D`
a: 3.57 kcal/mol

q: Fill blank: measured folding stability dG of the variant `Q24V` is ____.
a: 4.25 kcal/mol

q: So what's the measured folding stability dG for this one? `E53G`
a: 2.14 kcal/mol
